Data origin, for the record: patent US20230119539A1

# ASSAY_TARGET: T1, GR (Homo sapiens, UniProt P04150)
# T1 construct: host or cells: HEK293 (HEK293/GRLuc; HEK293/GRLuc/MSR1 additionally transduced with human MSR1)
# T1 sequence (P04150 524-758 limits assumed): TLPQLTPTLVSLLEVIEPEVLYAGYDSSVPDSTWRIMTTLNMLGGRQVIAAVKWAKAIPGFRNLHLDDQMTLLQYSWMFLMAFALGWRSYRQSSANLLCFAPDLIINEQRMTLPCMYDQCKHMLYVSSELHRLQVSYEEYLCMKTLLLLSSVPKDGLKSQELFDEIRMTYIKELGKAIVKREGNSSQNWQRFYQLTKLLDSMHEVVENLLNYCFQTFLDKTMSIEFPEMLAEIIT
# EXPERIMENTAL_PROTOCOL: GR luciferase reporter assay in HEK293/GRLuc cells
# Assay type: cell-based
# CONDITION_INFO: Table 11, ADCs
ASSAY_METRIC: S/N
Enter a number only.

MOLECULE	TEST_RESULT
H1H21234N-N297Q-L8-PII-1 (antibody, V domains shown, heavy-chain constant region (not part of this entry): N297Q (EU); linker-payload L8-PII-1 (COT-PEG4-EvcPAB-G-NHCH2-Bud) conjugated as in Example 5; four DAR ADC) VH: QVQLQESGPGLVKPSETLSLTCTVTGGSISRNYWSWIRQPPGKGLEWIGYIYYSGSIDYNPSLKSRVTISVDTSKNQFSLKLSSMTAADTAVYYCARDRWNWKYGMDVWGQGTTVIVSS VL: EIVLTQSPGTLSLSPGERATLSCRASQTVRNNYLAWYHQKPGQAPRLLIYGASSRATGIPDRFSGSGSGTDFTLTISRLEPEDFTVYYCHQYGNSPWTFGQGTKMEIKR	1.4
H1H21234N-N297Q-L1-PII-1 (antibody, V domains shown, heavy-chain constant region (not part of this entry): N297Q (EU); linker-payload L1-PII-1 (DIBAC-suc-PEG4-vcPAB-PII-1, payload budesonide) clicked onto azido-PEG3-amine on glutamines; DAR 4) VH: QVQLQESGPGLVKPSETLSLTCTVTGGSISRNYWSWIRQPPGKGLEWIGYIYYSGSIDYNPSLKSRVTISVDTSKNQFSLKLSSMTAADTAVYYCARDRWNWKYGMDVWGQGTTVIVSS VL: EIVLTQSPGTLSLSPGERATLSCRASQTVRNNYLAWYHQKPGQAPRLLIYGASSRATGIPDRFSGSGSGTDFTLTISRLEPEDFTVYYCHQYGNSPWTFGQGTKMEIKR	4.5
H1H21234N-N297Q-L14-PII-1 (antibody, V domains shown, heavy-chain constant region (not part of this entry): N297Q (EU); linker-payload L14-PII-1 (DIBAC-GGFG-NHCH2-Bud) conjugated as in Example 5; four DAR ADC) VH: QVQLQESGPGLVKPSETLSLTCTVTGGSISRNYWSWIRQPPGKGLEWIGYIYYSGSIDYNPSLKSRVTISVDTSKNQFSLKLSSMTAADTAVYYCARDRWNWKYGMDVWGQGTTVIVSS VL: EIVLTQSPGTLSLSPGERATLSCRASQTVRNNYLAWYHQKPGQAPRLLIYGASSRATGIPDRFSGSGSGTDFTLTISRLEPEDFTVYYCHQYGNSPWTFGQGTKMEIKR	16.8

# ---- query molecule ----
Asked: State the recorded S/N for this entry: H1H21234N-N297Q-L6-PII-9 (antibody, V domains shown, heavy-chain constant region (not part of this entry): N297Q (EU); linker-payload L6-PII-9 (DIBAC-suc-PEG4-PII-9, payload budesonide) conjugated as in Example 5; four DAR ADC) VH: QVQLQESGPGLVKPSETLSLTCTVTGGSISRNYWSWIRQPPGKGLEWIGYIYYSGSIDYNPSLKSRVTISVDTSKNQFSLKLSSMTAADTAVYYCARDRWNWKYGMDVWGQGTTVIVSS VL: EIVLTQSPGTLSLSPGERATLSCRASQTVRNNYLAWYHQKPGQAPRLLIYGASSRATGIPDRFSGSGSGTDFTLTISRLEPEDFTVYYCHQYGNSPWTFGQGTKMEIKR
Given back: 15.8
